- Tested on: NCI/ADR-RES cells
- assay_overview: Cell killing by free drugs or MMAF-ADCs with or without verapamil
- Assay type: cell-based
- measurement_context: Homo sapiens, 96 h, read-out: IC50 Drug or ADC Only
- Experimental: NCI/ADR-RES cells were plated and allowed to adhere. Neat culture medium or medium containing 40 μM verapamil was added, and the cultures were incubated for 4 hr. […] Referring to Table 7, the values are the IC50 in […] (doxorubicin, cisplatin, MMAF) or […] (cBR96-vcMMAF, mOKT9-vcMMAF) determined from 4-parameter curve fits. The fold difference is determined by dividing the IC50 from the drug alone treatment by that of the drug treated plus verapamil cultures.
parameter_measured: IC50 (µM)
Answers are plain numbers, in µM.

Please look up its IC50: `COc1cccc2c1C(=O)c1c(O)c3c(c(O)c1C2=O)C[C@@](O)(C(=O)CO)C[C@@H]3O[C@H]1C[C@H](N)[C@H](O)[C@H](C)O1`
10
